test target: AgBem1-D1
assay name: SPOT peptide array binding signal intensity (averaged, normalized) (arbitrary units (background-subtracted, floor 0; scale differs between SH3 domains)); higher = stronger binding of the SH3 domain to the peptide
Hi there, I'd appreciate the recorded SPOT peptide array binding signal intensity for every entry that follows.

Item `YLTRPLPSTPNEDSR` has what recorded SPOT peptide array binding signal intensity?
≤ 0

I would be grateful if you could share the reported SPOT peptide array binding signal intensity for `TTAPALPSLPPPPLL` .
≤ 0

Which SPOT peptide array binding signal intensity value is on record for `RLSFFFPLDPAYIRN` ?
121

Reported SPOT peptide array binding signal intensity for `MFLISPPASPPPEFD` : what is it?
70

Fill in: SPOT peptide array binding signal intensity of `VPKEPAPAPPPEPDM` is ___
≤ 0

Consider the binder shown here: `LLGRKRPVMERVVDI` What is its recorded SPOT peptide array binding signal intensity?
41

SPOT peptide array binding signal intensity lookup needed for `RRASLFPRDPKRLRP` , thanks.
169
